- ASSAY_TARGET: Protein cereblon/DNA damage-binding protein 1 (Homo sapiens, UniProt Q96SW2)
- Sequence (Q96SW2 whole entry): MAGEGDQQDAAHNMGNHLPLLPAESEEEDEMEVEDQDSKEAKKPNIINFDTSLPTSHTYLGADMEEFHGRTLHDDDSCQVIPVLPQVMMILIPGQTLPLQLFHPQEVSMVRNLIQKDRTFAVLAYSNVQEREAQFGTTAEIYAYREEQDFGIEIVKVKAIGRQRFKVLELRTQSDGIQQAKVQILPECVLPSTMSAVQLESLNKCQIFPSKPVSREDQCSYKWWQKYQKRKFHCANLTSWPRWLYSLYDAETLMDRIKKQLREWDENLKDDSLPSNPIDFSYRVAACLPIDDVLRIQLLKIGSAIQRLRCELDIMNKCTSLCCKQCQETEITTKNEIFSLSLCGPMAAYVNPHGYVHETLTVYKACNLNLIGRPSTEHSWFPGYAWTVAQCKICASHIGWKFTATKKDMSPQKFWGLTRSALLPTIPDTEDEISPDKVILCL
- Sequence (Q16531 whole entry, further chain): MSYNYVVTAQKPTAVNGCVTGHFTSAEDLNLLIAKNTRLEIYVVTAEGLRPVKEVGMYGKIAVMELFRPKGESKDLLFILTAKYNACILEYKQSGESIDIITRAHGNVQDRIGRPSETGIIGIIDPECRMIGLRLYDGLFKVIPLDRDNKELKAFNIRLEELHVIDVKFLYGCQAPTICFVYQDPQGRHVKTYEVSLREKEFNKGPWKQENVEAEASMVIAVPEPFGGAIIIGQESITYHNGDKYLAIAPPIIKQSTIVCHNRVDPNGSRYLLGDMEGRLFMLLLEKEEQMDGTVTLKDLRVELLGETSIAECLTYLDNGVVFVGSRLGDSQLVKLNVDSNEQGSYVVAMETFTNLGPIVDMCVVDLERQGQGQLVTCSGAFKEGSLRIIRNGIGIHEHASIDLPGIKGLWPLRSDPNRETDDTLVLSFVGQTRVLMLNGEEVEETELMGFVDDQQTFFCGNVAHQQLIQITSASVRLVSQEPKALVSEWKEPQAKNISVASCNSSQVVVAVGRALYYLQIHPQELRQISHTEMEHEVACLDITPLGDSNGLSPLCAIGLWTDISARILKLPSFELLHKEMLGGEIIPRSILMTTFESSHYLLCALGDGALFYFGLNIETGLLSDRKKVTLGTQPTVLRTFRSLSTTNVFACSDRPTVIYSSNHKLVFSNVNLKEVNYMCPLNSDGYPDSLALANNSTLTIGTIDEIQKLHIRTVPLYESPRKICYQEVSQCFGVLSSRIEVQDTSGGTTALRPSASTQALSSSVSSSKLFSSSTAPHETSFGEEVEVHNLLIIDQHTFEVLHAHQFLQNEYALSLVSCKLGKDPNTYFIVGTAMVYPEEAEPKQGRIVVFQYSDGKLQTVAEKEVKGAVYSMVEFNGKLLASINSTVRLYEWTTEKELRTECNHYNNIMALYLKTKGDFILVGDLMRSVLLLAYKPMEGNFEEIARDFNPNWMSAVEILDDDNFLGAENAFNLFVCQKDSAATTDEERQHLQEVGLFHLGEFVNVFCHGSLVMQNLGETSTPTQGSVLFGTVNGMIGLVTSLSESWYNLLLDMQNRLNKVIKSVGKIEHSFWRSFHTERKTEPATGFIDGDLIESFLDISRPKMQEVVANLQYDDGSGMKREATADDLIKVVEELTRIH
- MEASUREMENT_DESCRIPTION: Displacement of BODIPY FL thalidomide from 6His-tagged CRBN/DDB1 (unknown origin) expressed in baculovirus infected Sf9 insect cells incubated for 1 min under shaking condition followed by 60 mins incubation under dark condition by TR-FRET assay
Attribute: pEC50
For clarity, pEC50 is expressed as the negative log10 of concentration in mol/L.

These recorded examples may help you get a feel for the data.
[
  {
    "COMPOUND": "COc1ccc(OC)c(-n2nnc(C(=O)Nc3cc(NC(=O)Nc4cccc5c4C(=O)N(C4CCC(=O)NC4=O)C5=O)cc(C(C)(C)C)c3)c2C)c1 (centres undefined)",
    "MEASURED_ENDPOINT": "pEC50",
    "REPORTED_RESULT": 6.39
  },
  {
    "COMPOUND": "CC(=O)Nc1cc(Oc2cccc3c2C(=O)N(C2CCC(=O)NC2=O)C3=O)cc(C(C)(C)C)c1 (centres undefined)",
    "MEASURED_ENDPOINT": "pEC50",
    "REPORTED_RESULT": 7.96
  }
]

Request: Fill in: pEC50 of CC(=O)Nc1cc(Nc2cccc3c2C(=O)N(C2CCC(=O)NC2=O)C3=O)cc(C(C)(C)C)c1 (centres undefined) is ___
Response: 8.49
